Cited source for all entries: patent US6613747B2

Recorded MIC values for a group of compounds are listed next.
Tested on: E. faecalis ATCC29212
Assay: MIC, microdilution broth method (NCCLS)
Format: cell-based
Conditions: C: E. faecalis ATCC29212, 35° C., 16-20 hours

testSmiles | MIC (µg/mL)
CC[C@H]1OC(=O)[C@H](C)C(=O)[C@H](C)[C@@H](O[C@@H]2O[C@H](C)C[C@H](N(C)C)[C@H]2O)[C@](C)(OC(=O)NCc2cnn(-c3ccccc3)c2)C[C@@H](C)C(=O)[C@H](C)[C@H]2NC(=O)O[C@@]21C | 0.06
CC[C@H]1OC(=O)[C@H](C)C(=O)[C@H](C)[C@@H](O[C@@H]2O[C@H](C)C[C@H](N(C)C)[C@H]2O)[C@](C)(OC(=O)NCCCc2ccncc2)C[C@@H](C)C(=O)[C@H](C)[C@H]2NC(=O)O[C@@]21C | 0.12
CC[C@H]1OC(=O)[C@H](C)C(=O)[C@H](C)[C@@H](O[C@@H]2O[C@H](C)C[C@H](N(C)C)[C@H]2O)[C@](C)(OC(=O)NC/C=C/c2ccc(-n3ccnc3)cc2)C[C@@H](C)C(=O)[C@H](C)[C@H]2NC(=O)O[C@@]21C | 0.06
CC[C@H]1OC(=O)[C@H](C)C(=O)[C@H](C)[C@@H](O[C@@H]2O[C@H](C)C[C@H](N(C)C)[C@H]2O)[C@](C)(OC(=O)NC/C=C/c2cccc(-c3ccccn3)c2)C[C@@H](C)C(=O)[C@H](C)[C@H]2NC(=O)O[C@@]21C | 0.03
CC[C@H]1OC(=O)[C@H](C)C(=O)[C@H](C)[C@@H](O[C@@H]2O[C@H](C)C[C@H](N(C)C)[C@H]2O)[C@](C)(OC(=O)NCc2cn(-c3ncccn3)cn2)C[C@@H](C)C(=O)[C@H](C)[C@H]2NC(=O)O[C@@]21C | 0.06
CC[C@H]1OC(=O)[C@H](C)C(=O)[C@H](C)[C@@H](O[C@@H]2O[C@H](C)C[C@H](N(C)C)[C@H]2O)[C@](C)(OC(=O)NC/C=C/c2ccc(-n3cnnc3)cc2)C[C@@H](C)C(=O)[C@H](C)[C@H]2NC(=O)O[C@@]21C | 0.5
CC[C@H]1OC(=O)[C@H](C)C(=O)[C@H](C)[C@@H](O[C@@H]2O[C@H](C)C[C@H](N(C)C)[C@H]2O)[C@](C)(OC(=O)N(CC#Cc2ccccc2)CC#Cc2ccccc2)C[C@@H](C)C(=O)[C@H](C)[C@H]2NC(=O)O[C@@]21C | 2
CC[C@H]1OC(=O)[C@H](C)C(=O)[C@H](C)[C@@H](O[C@@H]2O[C@H](C)C[C@H](N(C)C)[C@H]2O)[C@](C)(OC(=O)NCc2ccc(-n3cccn3)cc2)C[C@@H](C)C(=O)[C@H](C)[C@H]2NC(=O)O[C@@]21C | 0.06

---

Test system: E. coli OC2605
Test: MIC, microdilution broth method (NCCLS)
Assay type: cell-based
Details: A: E. coli OC2605, 35° C., 16-20 hours

compound | censoringQualifier | MIC (µg/mL)
CC[C@H]1OC(=O)[C@H](C)C(=O)[C@H](C)[C@@H](O[C@@H]2O[C@H](C)C[C@H](N(C)C)[C@H]2O)[C@](C)(OC(=O)NC/C=C/c2ccccc2)C[C@@H](C)C(=O)[C@H](C)[C@H]2NC(=O)O[C@@]21C | > | 16
CC[C@H]1OC(=O)[C@H](C)C(=O)[C@H](C)[C@@H](O[C@@H]2O[C@H](C)C[C@H](N(C)C)[C@H]2O)[C@](C)(OC(=O)NCCNCc2ccc(-c3ncccn3)cc2)C[C@@H](C)C(=O)[C@H](C)[C@H]2NC(=O)O[C@@]21C | > | 16
CC[C@H]1OC(=O)[C@H](C)C(=O)[C@H](C)[C@@H](O[C@@H]2O[C@H](C)C[C@H](N(C)C)[C@H]2O)[C@](C)(OC(=O)NC/C=C/c2ccc([N+](=O)[O-])cc2)C[C@@H](C)C(=O)[C@H](C)[C@H]2NC(=O)O[C@@]21C | = | 4
CC[C@H]1OC(=O)[C@H](C)C(=O)[C@H](C)[C@@H](O[C@@H]2O[C@H](C)C[C@H](N(C)C)[C@H]2O)[C@](C)(OC(=O)NCCCCc2ccccc2)C[C@@H](C)C(=O)[C@H](C)[C@H]2NC(=O)O[C@@]21C | > | 16
CC[C@H]1OC(=O)[C@H](C)C(=O)[C@H](C)[C@@H](O[C@@H]2O[C@H](C)C[C@H](N(C)C)[C@H]2O)[C@](C)(OC(=O)NC/C=C/c2ccc(-n3cccn3)cc2F)C[C@@H](C)C(=O)[C@H](C)[C@H]2NC(=O)O[C@@]21C | = | 16
CC[C@H]1OC(=O)[C@H](C)C(=O)[C@H](C)[C@@H](O[C@@H]2O[C@H](C)C[C@H](N(C)C)[C@H]2O)[C@](C)(OC(=O)NC/C=C/c2ccc(-n3cccn3)c(OC)c2)C[C@@H](C)C(=O)[C@H](C)[C@H]2NC(=O)O[C@@]21C | > | 16
CC[C@H]1OC(=O)[C@H](C)C(=O)[C@H](C)[C@@H](O[C@@H]2O[C@H](C)C[C@H](N(C)C)[C@H]2O)[C@](C)(OC(=O)NCc2ccc(-n3ccnc3)cc2)C[C@@H](C)C(=O)[C@H](C)[C@H]2NC(=O)O[C@@]21C | = | 16
CCC1OC(=O)C(C)(F)C(=O)C(C)C(OC2OC(C)CC(N(C)C)C2O)C(C)(OC(=O)NCC=Cc2cnc3ccccc3c2)CC(C)C(=NO)C(C)C2NC(=O)OC12C (centres unmarked) | = | 8
